# KD (monkey)/KD (human) values compiled below
study.target: T1, monkey Trop2 protein (Sino Biological, #90893-C08H) (monkey, UniProt A0A2K5UE71 27-274)
T1 construct: bought protein; also called monkey Trop2 protein antigen (His tag)
T1 sequence: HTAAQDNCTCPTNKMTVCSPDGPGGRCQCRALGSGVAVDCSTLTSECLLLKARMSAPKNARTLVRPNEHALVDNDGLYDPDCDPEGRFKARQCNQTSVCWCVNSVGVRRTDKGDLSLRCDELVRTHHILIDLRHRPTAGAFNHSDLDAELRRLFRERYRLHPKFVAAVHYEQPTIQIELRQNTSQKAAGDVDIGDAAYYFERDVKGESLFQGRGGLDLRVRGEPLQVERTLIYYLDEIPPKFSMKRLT
assay.info: BLI, Octet RED96; ratio against KD for human Trop2 protein
// no unit, no text: just the number

Would you please look over these solved cases?
Please supply the value of reported KD (monkey)/KD (human) for the item PR001142 (antibody, human IgG1, kappa, V domains shown, fully human IgG1/kappa; also called antibody No. (9)) VH: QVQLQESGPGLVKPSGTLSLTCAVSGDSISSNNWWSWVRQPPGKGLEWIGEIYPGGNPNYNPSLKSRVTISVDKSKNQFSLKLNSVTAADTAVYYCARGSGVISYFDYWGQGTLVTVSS VL: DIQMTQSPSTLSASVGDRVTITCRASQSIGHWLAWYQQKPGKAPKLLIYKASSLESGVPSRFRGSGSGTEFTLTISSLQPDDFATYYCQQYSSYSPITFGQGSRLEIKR 0.81

Please supply the value of reported KD (monkey)/KD (human) for the item PR001133 (antibody, human IgG1, kappa, V domains shown, fully human IgG1/kappa; also called antibody No. (5)) VH: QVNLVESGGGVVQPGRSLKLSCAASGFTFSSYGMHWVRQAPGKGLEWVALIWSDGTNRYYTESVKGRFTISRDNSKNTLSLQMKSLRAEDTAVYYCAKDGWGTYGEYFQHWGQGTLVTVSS VL: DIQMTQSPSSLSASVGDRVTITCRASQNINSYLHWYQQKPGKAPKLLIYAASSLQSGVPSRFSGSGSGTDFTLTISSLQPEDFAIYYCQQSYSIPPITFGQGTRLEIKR 2.27

More entries:
Please supply the value of reported KD (monkey)/KD (human) for the item PR001163 (antibody, human IgG1, kappa, V domains shown, fully human IgG1/kappa; also called antibody No. (24)) VH: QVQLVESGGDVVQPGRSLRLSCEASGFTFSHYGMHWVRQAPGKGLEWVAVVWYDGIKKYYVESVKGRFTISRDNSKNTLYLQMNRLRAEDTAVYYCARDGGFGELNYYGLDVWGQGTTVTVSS VL: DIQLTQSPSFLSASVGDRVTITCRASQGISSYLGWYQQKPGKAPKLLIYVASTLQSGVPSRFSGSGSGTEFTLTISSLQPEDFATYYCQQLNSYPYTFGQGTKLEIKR 2.48

These measurements were taken from patent US20240067748A1.
